Biological target: N-acetylgalactosamine-6-sulfatase (GALNS) (Homo sapiens)
Construct: Isolated leukocytes were disrupted by sonication; from tissue; host or cells: human leukocytes from healthy donors (sonicated homogenate)
Sequence (P34059 27-522): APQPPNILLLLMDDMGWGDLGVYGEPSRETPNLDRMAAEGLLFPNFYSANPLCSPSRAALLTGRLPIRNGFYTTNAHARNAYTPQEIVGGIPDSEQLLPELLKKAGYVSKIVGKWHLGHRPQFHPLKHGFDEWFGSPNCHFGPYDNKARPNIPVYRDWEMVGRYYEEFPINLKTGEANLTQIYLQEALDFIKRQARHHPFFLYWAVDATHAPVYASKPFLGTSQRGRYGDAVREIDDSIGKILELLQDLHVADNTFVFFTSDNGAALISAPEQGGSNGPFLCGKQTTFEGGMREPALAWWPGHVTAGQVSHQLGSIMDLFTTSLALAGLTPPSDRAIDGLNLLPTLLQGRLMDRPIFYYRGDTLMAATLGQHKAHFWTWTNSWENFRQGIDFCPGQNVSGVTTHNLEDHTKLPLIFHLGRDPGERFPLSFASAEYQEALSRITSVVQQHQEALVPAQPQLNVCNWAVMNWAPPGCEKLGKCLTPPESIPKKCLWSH
Experiment: GALNS inhibition in leukocyte homogenate from healthy donors (4-methylumbelliferyl-β-galactoside-6-sulfate substrate, fluorescence)
Type: biochemical
Conditions: pH 4.3, 1 mM inhibitor; human leukocyte extracts; pH 4.3, 37 °C, 17 h
Protocol: A preliminary biological screening of the newly synthesized multivalent compounds at 1 mM inhibitor concentration was performed against GALNS in leukocytes isolated from healthy donors. […] The fluorescence was measured, and the inhibition percentages were calculated relative to the control. […] Experiments were performed in triplicate, and the mean ± S. D. was calculated. […]
property-measured: inhibition at 1000 µM (%)

Please review the entries below; each comes with its answer.
1) OCC1C(O)C(O)CN1CCCCCCn1cc(COCC(COCc2cn(CCCCCCN3CC(O)C(O)C3CO)nn2)(COCc2cn(CCCCCCN3CC(O)C(O)C3CO)nn2)COCc2cn(CCCCCCN3CC(O)C(O)C3CO)nn2)nn1 (stereo not shown) | 73
2) CC(=O)OCC1OC(OCCCCCCn2cc(CO)nn2)C(OC(C)=O)C(OC(C)=O)C1OC(C)=O (stereo not shown) | 16

[a] OCC1C(O)C(O)C2CC(n3cc(COCC(COCc4cn(C5CC6C(O)C(O)C(CO)N6C5)nn4)(COCc4cn(C5CC6C(O)C(O)C(CO)N6C5)nn4)COCc4cn(C5CC6C(O)C(O)C(CO)N6C5)nn4)nn3)CN12 (stereo not shown)
[b] O=C(NC(COCc1cn(CCN2C[C@@H](O)[C@H](O)[C@H]2CO)nn1)(COCc1cn(CCN2C[C@@H](O)[C@H](O)[C@H]2CO)nn1)COCc1cn(CCN2C[C@@H](O)[C@H](O)[C@H]2CO)nn1)c1ccc([N+](=O)[O-])cc1
Between a and b , which one has the lower reported inhibition at 1000 µM value? Label of pick, please.
a
(a: 9%, b: 49%)

====

We begin with a simple list: items and their reported inhibition at 1000 µM.
biological target: N-acetylgalactosamine-6-sulfatase (GALNS) (Homo sapiens); construct: Isolated leukocytes were disrupted by sonication; from tissue; host or cells: human leukocytes from healthy donors (sonicated homogenate); assay: GALNS inhibition in leukocyte homogenate from healthy donors (4-methylumbelliferyl-β-galactoside-6-sulfate substrate, fluorescence); format: biochemical; details: pH 4.3, 1 mM inhibitor; human leukocyte extracts; pH 4.3, 37 °C, 17 h
Please reply with the bare figure in % and do not write the unit itself.

1. OC[C@@H]1[C@@H](O)[C@H](O)CN1CCCCCCn1cc(COCC(COCc2cn(CCCCCCN3C[C@@H](O)[C@H](O)[C@H]3CO)nn2)(COCc2cn(CCCCCCN3C[C@@H](O)[C@H](O)[C@H]3CO)nn2)COCc2cn(CCCCCCN3C[C@@H](O)[C@H](O)[C@H]3CO)nn2)nn1 [Compound 30] | 35

Now take the following compound into account.
// inhibition at 1000 µM lookup, key: C#CCOCC(COCC#C)(COCC#C)NC(=O)c1cc(C(=O)NC(COCC#C)(COCC#C)COCC#C)cc(C(=O)NC(COCC#C)(COCC#C)COCC#C)c1 [Compound 12]
25

====

Target: N-acetylgalactosamine-6-sulfatase (GALNS) (Homo sapiens)
Construct: Isolated leukocytes were disrupted by sonication; from tissue; host or cells: human leukocytes from healthy donors (sonicated homogenate)
Assay: GALNS inhibition in leukocyte homogenate from healthy donors (4-methylumbelliferyl-β-galactoside-6-sulfate substrate, fluorescence)
Format: biochemical
Settings: human leukocyte extracts; cell prints mM under a µM head
Description: A preliminary biological screening of the newly synthesized multivalent compounds at 1 mM inhibitor concentration was performed against GALNS in leukocytes isolated from healthy donors. […] The fluorescence was measured, and the inhibition percentages were calculated relative to the control. […] Experiments were performed in triplicate, and the mean ± S. D. was calculated. […]
property-measured: IC50

// IC50 lookup, key: CC(=O)OCC1OC(OCCCCCCn2cc(CO)nn2)C(OC(C)=O)C(OC(C)=O)C1OC(C)=O (stereo not shown)
> 1 mM

// data source = paper PMC12113998
